Target: T1, Abp1, P15891
T1 sequence (P15891 535-592, looked up): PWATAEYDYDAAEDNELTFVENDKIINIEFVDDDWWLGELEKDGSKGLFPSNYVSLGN
Assay: SPOT array
Conditions: median of control spots 935
measured_metric: SPOT intensity
Note: the reply should be a number with no unit written.

Worked examples follow.
>>> measured("QLLNPNRRAPRRPLS")
125
>>> measured("NVLRKILEIPLHSFS")
7
>>> measured("PSRRDSLSIPRAVDA")
8
>>> measured("VTHRLRISIPGITGR")
225
>>> measured("EREKALPPIPFTTTL")
0

Reported SPOT intensity for AVPPPPPPPPLPESL : what is it?
0

Reported SPOT intensity for KRNRLKILLPFLEQS : what is it?
64

Reported SPOT intensity for GDHPKGPPPPPPPDE : what is it?
0

Reported SPOT intensity for GKFIPSRPAPKPPSS : what is it?
231

Reported SPOT intensity for LKQRFFLMFPKSIIW : what is it?
63

Reported SPOT intensity for NNQRRKPLLLNIGDH : what is it?
56
